Tested on: PBMC
Assay: Inhibition of LPS-induced IL6 production in human PBMC
Assay type: functional, cell-based
measured.endpoint: pIC50
# log scale: pIC50 equals minus log10 of the concentration in mol/L

Reported pIC50, compound `Cc1cc(-c2nc(C(=O)Nc3cn(C4CCOCC4)nc3C(N)=O)co2)ccn1.Cl` : ____
7.23

----------
Molecular target: Interleukin-1 receptor-associated kinase 4 (Homo sapiens)
Sequence (Q9NWZ3 whole entry): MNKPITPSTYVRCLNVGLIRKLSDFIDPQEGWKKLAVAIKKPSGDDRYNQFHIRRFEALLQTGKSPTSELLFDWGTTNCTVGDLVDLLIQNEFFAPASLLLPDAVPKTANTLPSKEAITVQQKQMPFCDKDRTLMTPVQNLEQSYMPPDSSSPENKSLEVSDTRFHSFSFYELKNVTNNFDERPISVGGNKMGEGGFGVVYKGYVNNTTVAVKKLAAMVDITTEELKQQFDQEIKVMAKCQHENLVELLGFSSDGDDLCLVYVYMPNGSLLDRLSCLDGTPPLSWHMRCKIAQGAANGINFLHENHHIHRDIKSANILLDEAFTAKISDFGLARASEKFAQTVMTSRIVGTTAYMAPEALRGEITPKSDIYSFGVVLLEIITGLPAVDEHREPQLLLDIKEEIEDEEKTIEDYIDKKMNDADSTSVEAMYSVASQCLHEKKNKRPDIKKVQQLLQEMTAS
measured.endpoint: pKi
# log scale: pKi equals minus log10 of the concentration in mol/L

Reported pKi, compound `CC(C)(C)C(=O)Oc1ccc2c(c1)nc(NC(=O)c1cccc([N+](=O)[O-])c1)n2CCCO` : ____
8.92

meta.source: ChEMBL document CHEMBL3351266
